Just for reference, patent US9561231B2 is where these values come from.

# measured_on: second (BD2: amino acids E352-E168) bromodomain of BRD4 (Homo sapiens, UniProt O60885)
# Construct: protocol
# method_description: TR-FRET bromodomain binding assay, BRD4 BD2
# condition_summary: TR-FRET assay protocol (D, E or G) per compound; Ki calculated from IC50, probe Kd and probe concentration; read-out: TR-FRET Binding Ki: BRD4 (BDII_E352-M457)
assay_readout: Ki (nM)

Examples with their reported Ki follow.
CCOc1cc(=O)n(C)cc1-c1cc(NC(=O)c2cc(Cl)ccc2Cl)ccc1Oc1ccc(F)cc1F [Example 412] : 11.9
CCOc1cc(=O)n(C)cc1-c1cc(NS(=O)(=O)CC)ccc1Oc1c(F)cc(Cl)cc1F [Example 404] : 1.43
CCOc1cc(=O)n(C)cc1-c1cc(S(=O)(=O)CC)ccc1Oc1ccc(OC(F)(F)F)cc1 [Example 377] : 6.41
CCS(=O)(=O)Nc1ccc(Oc2ccc(F)cc2F)c(-c2cn(C)c(=O)cc2OCC2CCNCC2)c1 [Example 399] : 20.1
CCS(=O)(=O)Nc1ccc(Oc2ccc(F)cc2F)c(-c2cn(C)c(=O)cc2OCC(C)(C)O)c1 [Example 376] : 17.1

[1] CCOc1cc(=O)n(C)cc1-c1cc(NS(=O)(=O)CC)ccc1Oc1ccc(Cl)cc1F [Example 403]
[2] CCOc1cc(=O)n(C)cc1-c1cc(NS(=O)(=O)CC)ccc1OC1CCN(C(C)=O)CC1 [Example 389]
Req: Which of the two items, 1 and 2 , has the greater recorded Ki? Please respond with the label that marks your chosen entry.
Resp: 2
(2: 3990 nM, 1: 1.38 nM)
